Test system: HS 578T breast
Assay: NCI tumour cell line growth inhibition, 48 h
measurement type: TGI

Look up TGI of CCOC(=O)Cc1csc(N=Nc2c(O)[nH]c3ccccc23)n1 and report it.
> 100 µM

Look up TGI of O=c1[nH]c2cc([N+](=O)[O-])c(Nc3c4ccccc4nc4ccccc34)c([N+](=O)[O-])c2[nH]1 and report it.
> 28.9 µM

Look up TGI of COc1ccc(NC(=O)CC(=O)N2N=C(N(c3ccccc3)c3ccccc3)CC2c2ccccc2)cc1 (configuration not stated) and report it.
> 100 µM

Look up TGI of COC(=O)c1ccc(CN2C(=O)C(Cl)=C(Nc3ccc(OC)c(Cl)c3)C2=O)cc1 and report it.
> 50 µM

Look up TGI of O=C(O)COc1cc(-c2ccccc2)nc2ccccc12 and report it.
> 100 µM

Look up TGI of COc1cc2oc(=O)cc(C)c2cc1OC and report it.
> 100 µM

Look up TGI of Cc1nc(Nc2nc3ccccc3[nH]2)nc(Cl)c1CCCl and report it.
> 100 µM

###

Tested on: SW-620 colon
Experiment: NCI tumour cell line growth inhibition, 48 h
measurement type: TGI (µM)
I only need the number, in µM, no unit after it.

Enter recorded TGI with SW-620 colon for C[C@]12CC[C@@H](OC(=O)N(CCCl)N=O)C[C@@H]1CC[C@@H]1[C@@H]2CC[C@]2(C)C(=O)CC[C@@H]12 here.
22.6

Enter recorded TGI with SW-620 colon for Nc1ccc(C(=O)CC2(O)C(=O)Nc3c(Cl)cc(Cl)cc32)cc1 (stereo not given) here.
65.4

###

System: SN12C renal
Assay: NCI tumour cell line growth inhibition, 48 h
measurement type: TGI

Look up TGI of O=NN1CCCS1(=O)=O and report it.
> 100 µM

Look up TGI of CC(C)(C)C(=O)N1CCN(C=O)C1=S and report it.
> 100 µM

Look up TGI of Cc1ccc2sc3ccc(N)cc3c(=O)c2c1 and report it.
> 100 µM

Look up TGI of CC1=CC[C@](C)(O)[C@@]2(C)CC[C@H]3C(=C(C)C)C(=O)C[C@]3(C)C[C@H]12 and report it.
> 50 µM

###

System: CAKI-1 renal
Assay: NCI tumour cell line growth inhibition, 48 h
Record form. Attribute: TGI. Fill in for each entry.

Look up TGI of Cn1ccc2c(c1=O)C(=O)OC2(C)C and report it.
> 100 µM

Look up TGI of COc1ccc(NC(=O)CC(=O)N2N=C(N(c3ccccc3)c3ccccc3)CC2c2ccccc2)cc1 (configuration not stated) and report it.
> 100 µM

Look up TGI of COc1cc2c(cc1O)CCN(C)[C@H]2Cc1ccc(Oc2c(O)c(OC)cc3c2C[C@H]2c4c(c(OC)c(OC)c(OC)c4-3)CCN2C)cc1 and report it.
10.9 µM

Look up TGI of O=C(O)c1cccc(/C=C/c2ccccc2)c1 and report it.
> 100 µM

Look up TGI of O=c1nc2ccc3sc4ccccc4c(=O)c3n2c(=O)[nH]1 and report it.
> 100 µM

Look up TGI of COc1cccc(NC(=O)CC(=O)N2N=C(C)C(N=Nc3ccc(C(=O)O)cc3)C2=O)c1 (configuration not stated) and report it.
> 100 µM

Look up TGI of CC(=Nc1cc(Cl)cc(Cl)c1)c1ccncc1 and report it.
> 100 µM

Look up TGI of O=C(NCCCCCCO)c1cccc2cc3ccccc3nc12 and report it.
36.1 µM

Look up TGI of Cc1cc2nc(-c3c(N)ncc(C#N)c3-c3ccc(Cl)cc3)[nH]c2cc1C and report it.
> 100 µM

Look up TGI of CCOC(=O)Cc1csc(N=Nc2c(O)[nH]c3ccccc23)n1 and report it.
> 100 µM

Look up TGI of CNC(=O)N(CCC#N)CCCN(C(=O)N(C)C)c1ccccc1 and report it.
> 100 µM

Look up TGI of CC(=O)c1cccc(-c2cccc(-c3ccn(CCN4CCOCC4)n3)c2)c1 and report it.
> 20 µM

###

Record form. Attribute: GI50. Fill in for each entry.
Test system: BT-549 breast
Assay: NCI tumour cell line growth inhibition, 48 h

Look up GI50 of C/C(=C(/c1ccc(O)cc1)c1ccc(Cl)cc1)c1ccccc1 and report it.
0.575 µM

Look up GI50 of COC(=O)c1ccc(CN2C(=O)C(Cl)=C(Nc3ccc(OC)c(Cl)c3)C2=O)cc1 and report it.
11.3 µM

Look up GI50 of CC[C@@]12C=CCN3CC[C@]4(c5cc(NC(=O)COc6cc(OCC(=O)Nc7cc8c(cc7OC)N(C)[C@H]7[C@@](O)(C(=O)OC)[C@H](OC(C)=O)[C@]9(CC)C=CCN%10CC[C@]87[C@@H]%109)cc7oc(-c8ccccc8)cc(=O)c67)c(OC)cc5N(C)[C@@H]4[C@](O)(C(=O)OC)[C@H]1OC(C)=O)[C@H]32 and report it.
3.7 µM

Look up GI50 of COc1cc2c(c(OC)c1OC)-c1ccc(O)c(=O)cc1[C@@H](NC(C)=O)CC2 and report it.
24 µM

Look up GI50 of CC(=O)c1cc(-c2ccccc2N)n(-c2ccc3c(c2)OCO3)c1C and report it.
0.575 µM

###

Test system: MDA-MB-231 breast
Assay: NCI tumour cell line growth inhibition, 48 h
Record form. Attribute: TGI. Fill in for each entry.

Enter recorded TGI with MDA-MB-231 breast for CC(=O)c1cc(-c2ccccc2N)n(-c2ccc3c(c2)OCO3)c1C here.
> 77 µM

Enter recorded TGI with MDA-MB-231 breast for C/C(=N/NC(=S)N1CCN(C(=S)N/N=C(/C)c2ccccn2)CC1)c1ccccn1 here.
> 100 µM

Enter recorded TGI with MDA-MB-231 breast for Nc1cc2[nH]cnc2c(=O)[nH]1 here.
> 300 µM

Enter recorded TGI with MDA-MB-231 breast for O=C1c2ccccc2C(=O)c2nn(N=P(CP(=Nn3nc4c(n3)C(=O)c3ccccc3C4=O)(c3ccccc3)c3ccccc3)(c3ccccc3)c3ccccc3)nc21 here.
> 100 µM

Enter recorded TGI with MDA-MB-231 breast for Cc1cc(=O)oc2cc(OC(=O)N(CCCl)CCCl)ccc12 here.
> 100 µM

Enter recorded TGI with MDA-MB-231 breast for O=NN1CCCS1(=O)=O here.
> 100 µM

Enter recorded TGI with MDA-MB-231 breast for CC(=O)c1cccc(-c2cccc(-c3ccn(CCN4CCOCC4)n3)c2)c1 here.
> 20 µM

Enter recorded TGI with MDA-MB-231 breast for COc1nc(C)cc2c(=O)n(-c3ccccc3)n(CC(O)CN3CCN(c4ccc(Cl)cc4)CC3)c(=O)c12 (configuration not stated) here.
> 50 µM

Enter recorded TGI with MDA-MB-231 breast for COC(=O)[C@@H]1C=C[C@H](NC(C)=O)C1 here.
> 100 µM

Enter recorded TGI with MDA-MB-231 breast for CC(C(=O)O)c1ccc(-c2ccccc2)c(F)c1 (configuration not stated) here.
> 100 µM

Enter recorded TGI with MDA-MB-231 breast for O=[N+]([O-])c1ccc2nc(/C=C(\O)c3ccc(Cl)cc3)c(/C=C(\O)c3ccc(Cl)cc3)nc2c1 here.
> 100 µM

Enter recorded TGI with MDA-MB-231 breast for COc1cc(C)cc2c(-c3c(O)cc(O)c4c3C[C@H](C)N[C@H]4C)cc(-c3cc(-c4c(O)cc(O)c5c4C[C@H](C)N[C@H]5C)c4cc(C)cc(OC)c4c3O)c(O)c12 here.
> 100 µM

Enter recorded TGI with MDA-MB-231 breast for C=CCOC1(CC=C)C(=O)OC2C(O)COC21O (configuration not stated) here.
> 100 µM

Enter recorded TGI with MDA-MB-231 breast for COc1cc2c3c(c1OC)C1(C=CC(=O)C=C1)CC3NCC2 (configuration not stated) here.
> 100 µM

Enter recorded TGI with MDA-MB-231 breast for CCOC(=O)Cc1csc(N=Nc2c(O)[nH]c3ccccc23)n1 here.
> 100 µM

Enter recorded TGI with MDA-MB-231 breast for CN(C)CCNC(=O)c1cc(NC(=O)c2cc(NC(=O)CC/C=C3/[C@@H]4CC[C@H]3N=N4)cn2C)cn1C here.
> 100 µM

Enter recorded TGI with MDA-MB-231 breast for O=C(O)c1cccc(/C=C/c2ccccc2)c1 here.
> 100 µM

Enter recorded TGI with MDA-MB-231 breast for Cc1nc2cccc(F)c2c(=O)n1-c1nnc(C(F)(F)F)s1 here.
> 10 µM

Enter recorded TGI with MDA-MB-231 breast for CCOC(=O)CCC(NC(=O)OCc1ccccc1)C(=O)NC(CCC(=O)OCC)C(=O)NC(CCC(=O)OCC)C(=O)NNC(=O)OC(C)(C)C (configuration not stated) here.
> 100 µM

Enter recorded TGI with MDA-MB-231 breast for Cc1ccc(/C=N\NC(=O)c2ccncc2)s1 here.
> 100 µM

Enter recorded TGI with MDA-MB-231 breast for Clc1ccc2ns[s+]c2c1 here.
> 100 µM

Enter recorded TGI with MDA-MB-231 breast for CCN1CCCn2c(=O)[nH]c3cc(Br)cc1c32 here.
> 100 µM
